Source listed as paper PMC4223075.

In this section, each of the sequences is paired with its reported log10(EC50).
Test system: Arabidopsis leaves
experimentSummary: Ethylene formation in Arabidopsis leaves / leaf discs
Type: cell-based, Arabidopsis thaliana
experimentalContext: synthetic peptides; Arabidopsis leaves; at least six different peptide concentrations; means ± SD of three replicates
No end group written: not given here.
In plain terms, each number is the log10 of measured EC50 in nM.

The examples below pair each entry with its known result.
AIMYSWYFPKDSPVTALGHRHDWE [compound 30] = 1.36
AIMYSWYFPKDSPATGLGHRHDWE [compound 28] = 1.48
AIMASWYFPKDSPVTGLGHRHDWE [compound 18] = 3.18
AIMYSWYAPKDSPVTGLGHRHDWE [compound 22] = 0.73
AIMYAWYFPKDSPVTGLGHRHDWE [compound 19] = 1.26
AIMYSWYFPKASPVTGLGHRHDWE [compound 25] = 1.99

I have this sequence here, IMYSWYFPKDSPVTGLGHR [compound 10] , and I need its recorded log10(EC50).
2.12

I have this sequence here, AIMYSWYFPKDSPVTGLGARHDWE [compound 33] , and I need its recorded log10(EC50).
1.68

I have this sequence here, AIMYSWYFPKDSPVTGLGHRHDAE [compound 37] , and I need its recorded log10(EC50).
0.86

I have this sequence here, WIMYSWYFPKDSPVTGLGHRHDWE [compound 15] , and I need its recorded log10(EC50).
1.74

I have this sequence here, AIMYSWYFPKDSPVTGLGHRHAWE [compound 36] , and I need its recorded log10(EC50).
0.79

I have this sequence here, AIMYSWYFPKDSPVTGLAHRHDWE [compound 32] , and I need its recorded log10(EC50).
2.34

I have this sequence here, AIMYSWYFPADSPVTGLGHRHDWE [compound 24] , and I need its recorded log10(EC50).
1.95

I have this sequence here, AAMYSWYFPKDSPVTGLGHRHDWE [compound 16] , and I need its recorded log10(EC50).
3.20

I have this sequence here, AIMYSWAFPKDSPVTGLGHRHDWE [compound 21] , and I need its recorded log10(EC50).
3.42

I have this sequence here, AIAYSWYFPKDSPVTGLGHRHDWE [compound 17] , and I need its recorded log10(EC50).
1.62

I have this sequence here, AIMYSWYFPKDSPVTGLGHAHDWE [compound 34] , and I need its recorded log10(EC50).
2.45

I have this sequence here, AIMYSWYFAKDSPVTGLGHRHDWE [compound 23] , and I need its recorded log10(EC50).
2.49

I have this sequence here, AIMYSWYFPKDSPVTGLGHRHDWA [compound 38] , and I need its recorded log10(EC50).
0.86

I have this sequence here, AIMYSWYFPKDSPVAGLGHRHDWE [compound 29] , and I need its recorded log10(EC50).
1.40

I have this sequence here, AIMYSWYFPKDSAVTGLGHRHDWE [compound 27] , and I need its recorded log10(EC50).
1.88

I have this sequence here, YAIMYSWYFPKDSPV [compound 3] , and I need its recorded log10(EC50).
2.34

I have this sequence here, AIMYSWYFPKDAPVTGLGHRHDWE [compound 26] , and I need its recorded log10(EC50).
1.76

I have this sequence here, AIMYSWYFPKDSPVTGAGHRHDWE [compound 31] , and I need its recorded log10(EC50).
1.38

I have this sequence here, MYSWYFPKDSPVTGLGHR [compound 11] , and I need its recorded log10(EC50).
3.19

I have this sequence here, RVATYNGVYAIMYSWYFPKD [compound 7] , and I need its recorded log10(EC50).
1.92

I have this sequence here, AIMYSWYFPKDSPVTGLGHRADWE [compound 35] , and I need its recorded log10(EC50).
0.89
